The measurements presented in this section are drawn from ChEMBL document CHEMBL1124738.

So I've got a bunch of molecules here, and I need their IC50 values.
Species on record: Rattus norvegicus
Assay Protocol: Ability to inhibit iron-dependent lipid peroxidation in rat brain homogenate using MDA (malondialdehyde) formation assay
Assay type: functional
Answers are plain numbers, in µM.

1) C[C@]12CCC(=O)C=C1CCC1C2=CC[C@@]2(C)C1CC[C@]2(O)C(=O)CN1CCN(c2cccc(N3CCCC3)n2)CC1 (some centres not stated): 57

Quick one: give me IC50 for each item below, same order please.
1. COc1cccc(N2CCN(CC(=O)[C@@]3(O)CCC4C5CCC6=CC(=O)CC[C@]6(C)C5=CC[C@@]43C)CC2)n1 (some centres not stated)
2. Cc1c(C)c2c(c(C)c1O)CC[C@@](C)(CCC[C@H](C)CCC[C@H](C)CCCC(C)C)O2
3. CCN(CC)c1ccc(N2CCN(CC(=O)[C@H]3[C@H](C)CC4C5CCC6=CC(=O)C=C[C@]6(C)C5=CC[C@@]43C)CC2)nc1N(CC)CC.O=C(O)/C=C/C(=O)O (some centres not stated)

Solution:
[101, 30, 3]
